# EXPERIMENTAL_TARGET: UniProt P49327
# Sequence (P49327 whole entry): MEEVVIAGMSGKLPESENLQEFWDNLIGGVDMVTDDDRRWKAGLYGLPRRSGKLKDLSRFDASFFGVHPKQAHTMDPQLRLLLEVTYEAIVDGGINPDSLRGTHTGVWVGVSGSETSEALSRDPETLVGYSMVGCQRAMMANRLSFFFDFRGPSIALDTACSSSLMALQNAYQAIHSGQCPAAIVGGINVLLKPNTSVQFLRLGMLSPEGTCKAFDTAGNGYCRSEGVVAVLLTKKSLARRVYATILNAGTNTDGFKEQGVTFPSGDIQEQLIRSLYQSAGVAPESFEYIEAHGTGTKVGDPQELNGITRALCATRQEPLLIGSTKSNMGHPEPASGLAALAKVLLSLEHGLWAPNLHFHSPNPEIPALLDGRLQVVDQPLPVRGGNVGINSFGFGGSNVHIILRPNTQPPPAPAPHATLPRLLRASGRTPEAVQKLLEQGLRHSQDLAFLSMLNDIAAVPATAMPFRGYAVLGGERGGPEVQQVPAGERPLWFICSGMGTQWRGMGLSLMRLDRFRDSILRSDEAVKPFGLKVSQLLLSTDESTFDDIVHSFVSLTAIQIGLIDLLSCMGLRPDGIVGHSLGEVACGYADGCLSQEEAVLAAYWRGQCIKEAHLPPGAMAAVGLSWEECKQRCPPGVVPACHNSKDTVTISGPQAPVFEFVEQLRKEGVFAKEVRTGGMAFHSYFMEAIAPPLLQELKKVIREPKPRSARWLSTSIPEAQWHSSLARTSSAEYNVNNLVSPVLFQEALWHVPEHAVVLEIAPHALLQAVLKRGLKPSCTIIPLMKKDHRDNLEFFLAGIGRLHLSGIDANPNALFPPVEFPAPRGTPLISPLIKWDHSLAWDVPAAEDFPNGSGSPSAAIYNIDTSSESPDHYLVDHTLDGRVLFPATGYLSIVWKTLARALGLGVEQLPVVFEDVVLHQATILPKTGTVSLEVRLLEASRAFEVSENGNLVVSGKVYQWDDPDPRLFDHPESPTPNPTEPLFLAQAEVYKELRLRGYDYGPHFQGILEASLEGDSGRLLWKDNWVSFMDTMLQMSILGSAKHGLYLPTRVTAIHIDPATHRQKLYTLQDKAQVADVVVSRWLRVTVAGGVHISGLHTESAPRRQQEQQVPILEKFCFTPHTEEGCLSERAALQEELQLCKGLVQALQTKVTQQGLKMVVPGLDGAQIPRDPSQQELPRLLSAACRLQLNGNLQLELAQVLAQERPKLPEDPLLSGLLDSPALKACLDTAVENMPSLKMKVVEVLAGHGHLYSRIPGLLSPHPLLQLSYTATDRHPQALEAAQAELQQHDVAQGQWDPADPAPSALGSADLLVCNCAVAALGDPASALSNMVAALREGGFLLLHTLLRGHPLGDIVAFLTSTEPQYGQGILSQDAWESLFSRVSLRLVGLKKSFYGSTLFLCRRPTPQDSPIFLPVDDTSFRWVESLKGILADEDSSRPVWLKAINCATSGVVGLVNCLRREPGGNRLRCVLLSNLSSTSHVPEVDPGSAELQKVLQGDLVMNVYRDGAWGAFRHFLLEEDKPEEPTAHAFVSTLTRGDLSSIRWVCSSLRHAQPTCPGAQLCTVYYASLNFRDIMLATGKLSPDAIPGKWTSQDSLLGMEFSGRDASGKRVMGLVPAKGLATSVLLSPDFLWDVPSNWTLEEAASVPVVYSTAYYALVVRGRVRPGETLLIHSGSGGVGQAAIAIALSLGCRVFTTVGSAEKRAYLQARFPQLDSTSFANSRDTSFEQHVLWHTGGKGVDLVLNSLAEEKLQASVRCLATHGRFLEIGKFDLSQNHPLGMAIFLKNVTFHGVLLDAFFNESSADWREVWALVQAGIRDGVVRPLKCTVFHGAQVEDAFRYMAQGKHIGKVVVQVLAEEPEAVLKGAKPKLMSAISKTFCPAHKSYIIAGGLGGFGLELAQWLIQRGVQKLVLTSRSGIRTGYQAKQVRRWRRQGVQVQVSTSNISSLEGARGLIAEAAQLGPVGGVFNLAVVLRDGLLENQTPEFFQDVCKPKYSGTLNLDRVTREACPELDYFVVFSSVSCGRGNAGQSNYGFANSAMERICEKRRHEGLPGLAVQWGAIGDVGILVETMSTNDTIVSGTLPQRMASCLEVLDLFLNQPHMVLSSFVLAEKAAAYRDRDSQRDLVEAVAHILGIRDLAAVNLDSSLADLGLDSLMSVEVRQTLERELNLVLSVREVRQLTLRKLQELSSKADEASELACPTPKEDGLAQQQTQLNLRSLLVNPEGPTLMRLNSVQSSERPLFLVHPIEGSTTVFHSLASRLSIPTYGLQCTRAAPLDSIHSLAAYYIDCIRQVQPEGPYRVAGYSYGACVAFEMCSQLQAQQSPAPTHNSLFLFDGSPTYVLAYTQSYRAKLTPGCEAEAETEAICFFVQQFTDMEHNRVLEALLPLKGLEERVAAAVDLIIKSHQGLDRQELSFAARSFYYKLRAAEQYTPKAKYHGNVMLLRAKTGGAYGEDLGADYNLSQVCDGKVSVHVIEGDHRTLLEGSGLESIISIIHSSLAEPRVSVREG
ASSAY_ENDPOINT: IC50 (nM)

COMPOUND | EXPERIMENTAL_TARGET | VALUE_OBSERVED
Cc1ccc(C(=O)N2CCC(c3ccc(-c4ccsc4)cc3)CC2)cc1NC(=O)c1ccc(NC(C)C)nc1 [Compound 223] | UniProt P49327 | 69.2
Cc1ccc(C(=O)N2CCC(c3ccc(-n4ccnc4)cc3)C(C)(C)C2)cc1NC(=O)c1ccc(Cl)nc1 (stereo not drawn) [Compound #6] | UniProt P49327 | 61.7
Cc1ccc(C(=O)N2CCC(c3ccc4[nH]c(=O)sc4c3)CC2)cc1NC(=O)c1ccc(NC(C)C)nc1 [Compound 49] | UniProt P49327 | 120
COCCN(C)c1ccc(C(=O)N2CCC(c3ccc(-c4cnn(C)c4)cc3)CC2)cc1NC(=O)C1CC1 [Compound 278] | UniProt P49327 | 813
Cc1ccc(C(=O)N2CCC(c3ccc(-c4cnn(C)c4)cc3)CC2)cc1NC(=O)C1CCN(C(C)C)C1 (stereo not drawn) [Compound 207] | UniProt P49327 | 132

A = Cc1ccc(C(=O)N2CCC(c3ccc(-c4cnn(C)c4)cc3)CC2)cc1NC(=O)c1cnccc1Cl [Compound 114]
B = Cc1ccc(C(=O)N2CC(c3ccc(-c4cnn(C)c4)cc3)C2)cc1NC(=O)c1ccc(Cl)nc1 [Compound 4]
Compare A and B and name the one whose reported IC50 is smaller. Please reply using the label of the selected record. B
(B: 39.8 nM, A: 316 nM)

1 = CC(C)Nc1ccc(C(=O)Nc2cc(C(=O)N3CCC(c4ccc(-c5cnn(C)c5)cc4)CC3)ccc2NC2CC2)cn1 [Compound 283]
2 = Cc1ccc(C(=O)N2CCC(c3ncc(-c4cnn(C)c4)cn3)CC2)cc1NC(=O)c1ccc(Cl)nc1 [Compound 257]
3 = Cc1ccc(C(=O)N2CCC(c3ccc(-c4ccccc4F)cc3)CC2)cc1NC(=O)c1ccc(NC(C)C)nc1 [Compound 224]
4 = CCCN1CC(C(=O)Nc2cc(C(=O)N3CCC(c4ccc(-c5cnn(C)c5)cc4)CC3)ccc2C)C1 [Compound 208]
Order these by IC50, descending, and give the full ranking. Ranked list of labels, please, in the requested order. 2, 4, 3, 1

1 = Cc1ccc(C(=O)N2CCC(c3ccc(-c4cnn(C5CC5)c4)cc3)CC2)cc1NC(=O)c1ccc(NC(C)C)nc1 [Compound 254]
2 = CCc1ccc(C(=O)N2CCC(c3ccc(-c4cnn(C)c4)cc3)CC2)cc1NC(=O)c1ccc(Cl)nc1 [Compound #255]
Sorting by IC50 in descending order, would 1 or 2 appear first? Respond with the label that goes with your answer. 1
(1: 42.7 nM, 2: 24 nM)
